Experiment: self-splicing fitness, log relative to wild type (ln ratio); higher = more splicing; Tetrahymena group I intron in knt gene, E. coli kanamycin selection, DiMSum; sequences stand for … in CUCUCU…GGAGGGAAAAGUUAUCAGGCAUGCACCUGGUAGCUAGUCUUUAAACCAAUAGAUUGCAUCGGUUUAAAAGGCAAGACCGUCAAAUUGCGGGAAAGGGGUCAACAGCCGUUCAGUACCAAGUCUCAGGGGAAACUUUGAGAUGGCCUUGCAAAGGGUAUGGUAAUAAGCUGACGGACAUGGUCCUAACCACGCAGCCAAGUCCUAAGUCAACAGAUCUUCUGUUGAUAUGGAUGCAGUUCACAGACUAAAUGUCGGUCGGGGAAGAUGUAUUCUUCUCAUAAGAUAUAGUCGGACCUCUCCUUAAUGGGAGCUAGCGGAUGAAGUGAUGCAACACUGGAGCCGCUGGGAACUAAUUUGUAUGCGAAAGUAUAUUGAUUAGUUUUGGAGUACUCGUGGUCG;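 also: selection with 25 µg/mL kanamycin versus none on LB agar overnight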
Details: 37 °C
Listed here are sequences together with their documented self-splicing fitness (ln).
PARAMETER: self-splicing fitness (ln)

SEQUENCE TEXT	NUMERIC VALUE
CAGGAGCAAUAUUACGGACU	-1.75
CCGAAGCAAUAUUACGAUGU	-1.86
GCACAGCAAUAUUACGAGUC	-1.29
GGCCAGCAAUAUUACGACUA	-0.322
ACGCAGCAAUAUUACGUCCC	-0.268
CAACAGCAAUAUUACGAGCC	-1.95

###

Experiment: self-splicing fitness, log relative to wild type (ln ratio); higher = more splicing; Tetrahymena group I intron in knt gene, E. coli kanamycin selection, DiMSum; sequences stand for … in CUCUCU…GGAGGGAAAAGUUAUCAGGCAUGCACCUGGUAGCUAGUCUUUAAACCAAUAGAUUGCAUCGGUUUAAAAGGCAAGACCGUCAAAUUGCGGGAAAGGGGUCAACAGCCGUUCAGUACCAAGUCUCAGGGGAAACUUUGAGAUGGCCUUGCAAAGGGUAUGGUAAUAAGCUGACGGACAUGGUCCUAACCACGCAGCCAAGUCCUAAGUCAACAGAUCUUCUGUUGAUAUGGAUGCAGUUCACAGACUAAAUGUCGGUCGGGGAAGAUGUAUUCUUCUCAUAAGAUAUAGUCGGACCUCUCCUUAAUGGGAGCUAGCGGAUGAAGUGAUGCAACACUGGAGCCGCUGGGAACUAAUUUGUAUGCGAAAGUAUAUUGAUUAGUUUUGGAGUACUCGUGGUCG
Conditions: 30 °C
Listed here are sequences together with their documented self-splicing fitness (ln).

SEQUENCE TEXT	self-splicing fitness (ln)
CCAAAGCAAUAUUACGGGGC	-3.09
AGAAAGCAAUAUUACGCAGC	-2.92
CGUAAGCAAUAUUACGUGGA	-2.93
CGCAAGCAAUAUUACGGUUU	-2.95
UAGGAGCAAUAUUACGUGUU	-2.97
CCUUAGCAAUAUUACGCCCG	-1
CAUGAGCAAUAUUACGUAAU	-3.04
AAGUAGCAAUAUUACGAUGG	-3.03
UGCCAGCAAUAUUACGGGGC	-3.04

###

Assay: self-splicing fitness, log relative to wild type (ln ratio); higher = more splicing; Tetrahymena group I intron in knt gene, E. coli kanamycin selection, DiMSum; sequences stand for … in CUCUCU…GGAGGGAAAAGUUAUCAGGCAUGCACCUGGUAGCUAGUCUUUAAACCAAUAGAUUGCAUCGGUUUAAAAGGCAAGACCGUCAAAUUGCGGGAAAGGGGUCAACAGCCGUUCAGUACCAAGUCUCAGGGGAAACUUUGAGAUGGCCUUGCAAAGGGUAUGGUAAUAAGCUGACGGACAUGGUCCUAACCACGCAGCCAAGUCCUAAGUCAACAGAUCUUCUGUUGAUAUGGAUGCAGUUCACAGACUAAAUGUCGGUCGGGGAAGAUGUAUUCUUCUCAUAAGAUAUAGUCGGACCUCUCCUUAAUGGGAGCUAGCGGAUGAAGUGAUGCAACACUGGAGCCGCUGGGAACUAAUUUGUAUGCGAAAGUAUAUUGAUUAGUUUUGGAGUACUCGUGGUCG
Conditions: 30 °C
Use -2 as the dividing line for self-splicing fitness (ln), with the line itself on the condition met side and lower values as condition not met.

SEQUENCE TEXT	ANSWER LABEL
ACCAAGCAAUAUUACGCGUC	condition not met
GUCGAGCAAUAUUACGUUAC	condition not met
CACCAGCAAUAUUACGUCUU	condition not met
CAAGAGCAAUAUUACGCUAC	condition not met
CGAAAGCAAUAUUACGACAG	condition met
AAAGAGCAAUAUUACGACGU	condition met
ACCAAGCAAUAUUACGGUGU	condition not met
GGUUAGCAAUAUUACGAGCA	condition met
CGGCAGCAAUAUUACGGCGC	condition not met
CAAGAGCAAUAUUACGUUCA	condition not met
GGUUAGCAAUAUUACGAUUG	condition met
GAGUAGCAAUAUUACGGCAA	condition met

###

Assay: self-splicing fitness, log relative to wild type (ln ratio); higher = more splicing; Tetrahymena group I intron in knt gene, E. coli kanamycin selection, DiMSum; sequences stand for … in CUCUCU…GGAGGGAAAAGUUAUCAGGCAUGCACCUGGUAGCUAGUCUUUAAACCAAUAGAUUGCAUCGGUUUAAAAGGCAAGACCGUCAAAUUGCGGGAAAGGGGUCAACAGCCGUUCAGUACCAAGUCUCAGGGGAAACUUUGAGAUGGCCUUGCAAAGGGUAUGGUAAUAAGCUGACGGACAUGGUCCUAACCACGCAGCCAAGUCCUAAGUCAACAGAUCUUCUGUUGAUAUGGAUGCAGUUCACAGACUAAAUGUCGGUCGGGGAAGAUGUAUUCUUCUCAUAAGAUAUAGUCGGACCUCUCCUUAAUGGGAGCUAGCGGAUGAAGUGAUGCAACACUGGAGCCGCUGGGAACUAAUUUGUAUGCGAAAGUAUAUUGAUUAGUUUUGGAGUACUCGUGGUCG
Conditions: 30 °C

SEQUENCE TEXT	self-splicing fitness (ln)
CAUUAGCAAUAUUACGUACG	-0.341
UCCCAGCAAUAUUACGACCC	-2.89
CGCGAGCAAUAUUACGUCUA	-1.42
GUACAGCAAUAUUACGUCGA	-2.07
CUAUAGCAAUAUUACGUGAC	-1.2
UGACAGCAAUAUUACGCGAU	-2.5
UACCAGCAAUAUUACGGGCU	-2.89

###

Test: self-splicing fitness, log relative to wild type (ln ratio); higher = more splicing; Tetrahymena group I intron in knt gene, E. coli kanamycin selection, DiMSum; sequences stand for … in CUCUCU…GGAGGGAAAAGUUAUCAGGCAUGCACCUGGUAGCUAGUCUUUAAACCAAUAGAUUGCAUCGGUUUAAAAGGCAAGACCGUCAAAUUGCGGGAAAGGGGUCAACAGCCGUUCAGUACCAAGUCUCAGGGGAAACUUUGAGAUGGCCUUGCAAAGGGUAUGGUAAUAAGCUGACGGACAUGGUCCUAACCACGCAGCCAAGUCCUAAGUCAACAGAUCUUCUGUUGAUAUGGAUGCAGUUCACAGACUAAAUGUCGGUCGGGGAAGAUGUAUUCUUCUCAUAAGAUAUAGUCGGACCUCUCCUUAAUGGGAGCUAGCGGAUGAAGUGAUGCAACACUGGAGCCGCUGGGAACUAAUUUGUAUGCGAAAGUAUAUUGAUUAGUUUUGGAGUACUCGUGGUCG
Settings: 30 °C
PARAMETER: self-splicing fitness (ln)

SEQUENCE TEXT	NUMERIC VALUE
AUGAAGCAAUAUUACGUAGC	-4.32
ACAUAGCAAUAUUACGAGGG	-3.52
UAGCAGCAAUAUUACGUCGU	-3.4

###

Assay: self-splicing fitness, log relative to wild type (ln ratio); higher = more splicing; Tetrahymena group I intron in knt gene, E. coli kanamycin selection, DiMSum; sequences stand for … in CUCUCU…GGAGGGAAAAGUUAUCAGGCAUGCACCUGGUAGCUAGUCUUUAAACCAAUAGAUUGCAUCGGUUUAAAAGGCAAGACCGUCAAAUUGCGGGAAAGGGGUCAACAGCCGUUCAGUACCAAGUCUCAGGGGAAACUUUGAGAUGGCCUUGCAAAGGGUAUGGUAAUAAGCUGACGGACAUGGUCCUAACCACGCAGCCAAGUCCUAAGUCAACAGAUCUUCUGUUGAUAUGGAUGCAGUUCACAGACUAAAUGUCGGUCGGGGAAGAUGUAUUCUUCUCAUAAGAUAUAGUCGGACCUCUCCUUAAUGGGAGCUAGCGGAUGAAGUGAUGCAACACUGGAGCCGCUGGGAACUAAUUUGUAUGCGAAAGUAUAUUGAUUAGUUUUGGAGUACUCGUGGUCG
Settings: 30 °C

SEQUENCE TEXT	self-splicing fitness (ln)
AACCAGCAAUAUUACGGAGC	-2.17
AAUCAGCAAUAUUACGCUCC	-1.54
AGGAAGCAAUAUUACGUAGA	-1.86
CGCUAGCAAUAUUACGGCCG	-1.19
UUACAGCAAUAUUACGCUGG	-4.24
